biological target: Nonstructural protein 3 (Zika virus, UniProt A0A024AXB9); assay: Functional biochemical assay to identify treatments for viral infectious disease that targets Zika NS2B-NS3 protease. Utilizing a direct enzyme activity measurement method, reading the fluorescence intensity is used to characterize the relative potency of inhibitors as IC50.; set-up: species or system PRVABC59
Sequence (A0A024AXB9 whole entry): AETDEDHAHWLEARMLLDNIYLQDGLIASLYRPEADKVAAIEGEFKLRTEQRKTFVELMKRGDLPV
Would you kindly list pIC50 for each of these molecules?
Give bare numbers, as −log10 of the molar value.

// worked examples, pIC50 included
Cc1ncc(-c2ccc([C@@H](NC(=O)OCc3ccccc3)C(=O)Nc3cccc(CN)c3)cc2)s1	4.56
NCCCCc1ccc(NC(=O)c2cc(Cl)cc(NC(=O)OCc3ccccc3)c2)cc1	5.27
Cc1cc(C(=O)O)c(NS(=O)(=O)c2ccc(Oc3ccccc3Cl)cc2)cc1F	4.67

Take each entry in turn and give its pIC50.
1. N[C@H]1CCOc2ccc(NC(=O)c3cc(Cl)cc(NC(=O)OCc4ccccc4)c3)cc21
2. O=C(Nc1ccc2c(c1)CNC2)c1c[nH]c2ncc(F)cc12

Solution:
4.97
4.63

----------
Would you kindly list IC50 for each of these compounds?
biological target: Nonstructural protein 3 (Zika virus, UniProt A0A024AXB9); assay: Functional biochemical assay to identify treatments for viral infectious disease that targets Zika NS2B-NS3 protease. Utilizing a direct enzyme activity measurement method, reading the fluorescence intensity is used to characterize the relative potency of inhibitors as IC50.; parameters: species or system PRVABC59

// worked examples, IC50 included
O=C(Nc1cc(-c2cccnc2)ccn1)c1c[nH]c2ncccc12	> 25 µM
NCc1cccc(NC(=O)[C@@H](NC(=O)OCc2ccccc2)c2c(F)cccc2F)c1	> 99.5 µM
NCc1cc(Cl)cc(C(=O)Nc2ccc3c(c2)C(=O)OC3)c1	> 25 µM
O=C(Nc1cc(Cl)cc(C(=O)Nc2ccc(C3CCNCC3)cc2)c1)OCc1ccccc1	6.02 µM
CCn1cc(-c2ccc3ocnc3c2)nc(N2CC[C@@H](CO)C2)c1=O	> 99.5 µM
O=C(O)Cn1ncc2cc(-c3cc(Cl)cc(NC(=O)OCc4ccccc4)c3)ccc21	45.2 µM
Cc1cc(C)cc(C(=O)N2CCC(NS(=O)(=O)c3ccc(Cl)cc3C(=O)O)CC2)c1	> 99.5 µM
Cc1cc(C(=O)N[C@@H]2CC[C@@H]3CN(C)C[C@@H]32)sc1C=O	> 99.5 µM

Take each entry in turn and give its IC50.
1. O=C1Cc2c(cccc2C(=O)Nc2ccc3[nH]nnc3c2)N1
2. c1cnc2c(c1)CC[C@@H]2NCc1n[nH]c2ccccc12
3. Cc1cc(C(=O)Nc2cccc(CN)c2)nc(C)n1
4. CCNC(=O)Nc1cc(Cl)cc(C(=O)Nc2cccc(C3CCNCC3)c2)c1
5. CN(C)Cc1ccccc1CNC(=O)[C@@H](NC(=O)OCc1ccccc1)c1ccc(OCc2ccccc2)cc1
6. NCc1cccc(NC(=O)[C@@H]2[C@H](N)[C@@H]3CCCCC[C@@H]32)c1
7. CC(C)(C)Oc1ccc(S(=O)(=O)Nc2ccc(Cl)cc2C(=O)O)cc1

Solution:
> 25 µM
> 99.5 µM
> 99.5 µM
19.9 µM
> 99.5 µM
> 99.5 µM
> 99.5 µM

Take each entry in turn and give its IC50.
1. NCc1cccc(NC(=O)[C@@H](NC(=O)OCc2ccccc2)C2CCCCC2)c1
2. O=C(NCC(F)F)[C@H](Nc1ccc2c(c1)CNC2)c1cc(Cl)cc2cccnc12
3. CN(Cc1cccnc1)Cc1c[nH]c2ccccc12
4. NCc1cccc(NC(=O)[C@H](NC(=O)OCc2ccccc2)c2cccc(OC[C@H]3COCCO3)c2)c1
5. Cc1c(C(=O)Nc2cc(C(N)=O)ccn2)cc(C2CC2)n1C

Solution:
["> 99.5 µM", "0.016 µM", "> 99.5 µM", "> 99.5 µM", "> 25 µM"]

Take each entry in turn and give its IC50.
1. CCc1cc(C(=O)Nc2cccc(-c3nnn[nH]3)c2)sc1C
2. CCn1c(=O)c(N2C[C@H]3OCCN(C(C)=O)[C@H]3C2)nc2ccccc21

Solution:
> 99.5 µM
> 99.5 µM

----------
target: Nonstructural protein 3 (Zika virus, UniProt A0A024AXB9); test: Functional biochemical assay to identify treatments for viral infectious disease that targets Zika NS2B-NS3 protease. Utilizing a direct enzyme activity measurement method, reading the fluorescence intensity is used to characterize the relative potency of inhibitors as IC50.; set-up: species or system PRVABC59
RECORDED METRIC: IC50

// worked examples, IC50 included
O=C(Nc1ccc2c(c1)CNC2)c1ccc2[nH]ncc2c1	2.01 µM
NCCc1ccc(NC(=O)c2cc(Cl)cc(CN)c2)cc1	8.04 µM
NCc1cccc(NC(=O)[C@@H](NC(=O)OCc2ccccc2)c2cc(F)cc(F)c2)c1	> 99.5 µM
O=C1Cc2c(cccc2C(=O)Nc2ccn(C[C@H]3CCOC3)n2)N1	> 25 µM
C[S@@+]([O-])c1nncn1Cc1ccc(Cl)s1	> 99.5 µM

Moving on to the next compound.
Problem: # lookup: IC50 of `O=C(Nc1cc(Cl)cc(C(=O)Nc2cc(C(=O)O)ccn2)c1)OCc1ccccc1`
Solution: > 99.5 µM

----------
Would you kindly list IC50 for each of these compounds?
target: Nonstructural protein 3 (Zika virus); experiment: Functional biochemical assay to identify treatments for viral infectious disease that targets Zika NS2B-NS3 protease. Utilizing a direct enzyme activity measurement method, reading the fluorescence intensity is used to characterize the relative potency of inhibitors as IC50.; parameters: species or system PRVABC59
Give bare numbers, in µM.

O=C(O)c1cc2cc(-c3cc(Cl)cc4ncccc34)ccc2[nH]1	40.3

Take each entry in turn and give its IC50.
1. Cc1nc(C2CCN(Cc3c[nH]c4ccccc34)CC2)sc1C(=O)O
2. NCc1cccc(NC(=O)c2cccc(Oc3ccc(Cl)c(Cl)c3)n2)c1
3. CC(=Cc1cc(Cl)cc(NC(=O)OCc2ccccc2)c1)c1cccc(CN)c1

Solution:
1. 99.3
2. 39.4
3. 5.26

----------
target: Nonstructural protein 3 (Zika virus); assay: Functional biochemical assay to identify treatments for viral infectious disease that targets Zika NS2B-NS3 protease. Utilizing a direct enzyme activity measurement method, reading the fluorescence intensity is used to characterize the relative potency of inhibitors as IC50.; parameters: species or system PRVABC59
RECORDED METRIC: IC50

// worked examples, IC50 included
Cn1nc([C@H](Nc2cc([C@H]3CCOC3)ccn2)C(F)(F)F)cc1C1CC1	> 25 µM
Cc1cc(-c2cccc([C@H](NC(=O)OCc3ccccc3)C(=O)Nc3cccc(CN)c3)c2)[nH]n1	> 99.5 µM

Take each entry in turn and give its IC50.
1. Cc1c(C(=O)Nc2cccc([C@H]3CCOC3)c2)cc(C2CC2)n1C
2. NCc1cccc(NC(=O)c2cc(Br)cc(NC(=O)OCc3ccccc3)c2)c1

Solution:
> 25 µM
7.91 µM

Take each entry in turn and give its IC50.
1. C[C@H]1CC[C@@](Cc2nc3ccccc3[nH]2)(C(=O)Nc2cccc(CN)c2)CC1
2. CN(C)c1nc(-c2cc(F)cc(C(=O)Nc3ccc4c(c3)CNC4)c2)cs1

Solution:
1. > 99.5 µM
2. 0.146 µM

Take each entry in turn and give its IC50.
1. Cc1cc(C(=O)Nc2cc(-c3cccnc3)ccn2)nn1CCN
2. CCn1c(=O)c(N2C[C@H]3C[C@@H](O)CC[C@H]3C2)nc2ccccc21
3. O=C(N[C@@H](C(=O)Nc1cccnc1)c1ccc(OCc2ccccc2)cc1)OCc1ccccc1
4. CCn1cc(C(=O)NCc2ccccc2)nc(N2CC[C@@H](CO)C2)c1=O

Solution:
["> 25 µM", "> 99.5 µM", "> 99.5 µM", "> 99.5 µM"]

Take each entry in turn and give its IC50.
1. CCn1c(=O)c(N2CC[C@@H](CO)C2)nc2ccccc21
2. COCCN(C)Cc1ccnc(NC(=O)c2cc(C3CC3)n(C)c2C)c1
3. O=C(Nc1ccc2c(c1)CNC2)c1cc(C(F)(F)F)nc2[nH]ccc12
4. NCc1cccc(NC(=O)c2cc(NC(=O)OCc3ccccc3)cc3c2OCCO3)c1

Solution:
1. > 99.5 µM
2. > 25 µM
3. 7.32 µM
4. 89.6 µM

----------
Would you kindly list IC50 for each of these compounds?
target: Nonstructural protein 3 (Zika virus); experiment: Functional biochemical assay to identify treatments for viral infectious disease that targets Zika NS2B-NS3 protease. Utilizing a direct enzyme activity measurement method, reading the fluorescence intensity is used to characterize the relative potency of inhibitors as IC50.; set-up: species or system PRVABC59

// worked examples, IC50 included
CSc1cc(F)c(C(=O)Nc2cccc(CN)c2)cc1NC(=O)OCc1ccccc1	83.6 µM
C[C@@H](NC(=O)c1cc(Cl)ccc1NS(=O)(=O)c1ccc(Oc2ccccc2Cl)cc1)C(=O)O	> 99.5 µM
NC[C@H]1CC[C@@H](CNC(=O)[C@@H](NC(=O)OCc2ccccc2)c2ccc(OCc3ccccc3)cc2)CC1	58.2 µM
CCn1cc(-c2ccc(S(C)(=O)=O)cc2)nc(N2CC[C@@H](CO)C2)c1=O	> 99.5 µM
NCc1cc(C(=O)N2CCOCC2)cc([C@@H]2C[C@H]2c2cc(Cl)cc(NC(=O)OCc3ccccc3)c2)c1	13.8 µM
N#Cc1ccc(S(=O)(=O)CCn2nc(-c3ccco3)oc2=O)cc1	> 99.5 µM
CCn1c(=O)c(N2CC[C@]3(CCCN(C)C3)C2)nc2ccccc21	> 99.5 µM
O=C(Nc1ccc2c(c1)CNC2)c1cc(Cl)ccc1-n1cncn1	0.876 µM

Take each entry in turn and give its IC50.
1. NCc1cccc(NC(=O)[C@@H](NC(=O)OCc2ccccc2)c2cccc(-c3ccc(N)nc3)c2)c1
2. O=C(c1cc(Cl)cc2[nH]ncc12)N1CC[C@]2(CCNC2)C1
3. Nc1ccc(/C=C/C(=O)C(=O)N2CCN(CCc3ccccc3)CC2)cc1
4. NCc1cc(Cl)ccc1NS(=O)(=O)c1ccc(Oc2ccccc2Cl)cc1
5. CCn1c(=O)c(N2CC[C@]3(CCNC3=O)C2)nc2ccccc21
6. C=CC[C@H](Nc1cc(CN)ccn1)c1cc(Cl)cc(NC(=O)OCc2ccccc2)c1

Solution:
1. 43.6 µM
2. > 99.5 µM
3. > 99.5 µM
4. > 99.5 µM
5. > 99.5 µM
6. > 99.5 µM

Take each entry in turn and give its IC50.
1. O=C(Nc1ccc2c(c1)CNC2)C1(c2ccc(Cl)cc2)CCCC1
2. CN(C)CCc1ccc(CNC(=O)[C@@H](NC(=O)OCc2ccccc2)c2ccc(OCc3ccccc3)cc2)cc1
3. O=C(Nc1ccc2c(c1)CNC2)c1ncc(Br)s1

Solution:
1. > 25 µM
2. 54.6 µM
3. 61.7 µM

Take each entry in turn and give its IC50.
1. O=C(Nc1cc([C@H]2CCOC2)ccn1)c1ccc2ncsc2c1
2. O=C(NCC(F)F)[C@H](Nc1ncc2c(n1)CNC2)c1cc(Cl)cc(C2CC2)c1
3. CCS(=O)(=O)c1ccc(Cl)cc1C(=O)Nc1ccc2c(c1)CNC2

Solution:
1: > 25 µM; 2: 4.19 µM; 3: 2.52 µM

Take each entry in turn and give its IC50.
1. O=S(=O)(Nc1cccc(-c2nnn[nH]2)c1)c1cc(Cl)cc2c1OCC2
2. COCCCN1Cc2ccc(NC(=O)c3cc(Cl)cc4[nH]ncc34)cc2C1
3. O=C(Nc1ccc2c(c1)CNC2)c1cc(F)cc2[nH]cnc12
4. CCOCC(=O)N[C@H](C(=O)Nc1cccc(CN)c1)c1ccc(OCc2ccccc2)cc1
5. NCc1cccc(NC(=O)c2cccc(NC(=O)OCc3ccccc3)n2)c1
6. CCn1ccnc(N2CC[C@@H](CC#N)C2)c1=O
7. O=C(Nc1cc(-c2cccnc2)ccn1)c1cc2n(c1)CCC2

Solution:
["> 99.5 µM", "13.1 µM", "0.176 µM", "> 99.5 µM", "> 99.5 µM", "> 99.5 µM", "> 25 µM"]

Take each entry in turn and give its IC50.
1. O=C(Cn1ccnc(N2CC[C@H](CO)C2)c1=O)N1CCOCC1
2. NC(=O)c1cn(C[C@H]2CCCN2c2ccnc3ccccc23)nn1
3. NCc1cccc(N[C@H](C#CCO)c2cc(Cl)cc(NC(=O)OCc3ccccc3)c2)c1
4. O=C(O)c1cc(Cl)ccc1S(=O)(=O)N[C@H]1CCN(Cc2ccccc2)C2(CC2)C1
5. Cc1cc(=O)c(C(=O)Nc2cccc(CN)c2)nn1-c1ccccc1C(F)(F)F
6. CC(C)c1nn(-c2ccccc2)cc1C(=O)Nc1cccc(CN)c1
7. Cc1ccc(C(=O)Nc2ccc3c(c2)CNC3)c2[nH]ncc12
8. NCc1ccc(C[C@H](NC(=O)c2ccccc2)C(=O)N2CCCCC2)cc1

Solution:
1. > 99.5 µM
2. > 99.5 µM
3. 17.7 µM
4. > 99.5 µM
5. > 99.5 µM
6. > 99.5 µM
7. 3.39 µM
8. > 99.5 µM

Take each entry in turn and give its IC50.
1. O=C(Nc1cc(Cl)cc(C(=O)Nc2ccc([C@H]3CCCNC3)cc2)c1)OCc1ccccc1
2. O=C(Nc1cnc2c(c1)CNCC2)c1cc(Cl)cc2[nH]ncc12
3. CCN1C(=O)CCc2cc(NS(=O)(=O)c3ccc(Cl)cc3C(=O)O)ccc21
4. C=CC[C@H](Nc1cccc(Cl)c1)c1cccc(-c2nn[nH]n2)c1
5. O=C(Nc1cc(Cl)cc(C(=O)Nc2ccc([C@@H]3C[C@H]3C(=O)O)cc2)c1)OCc1ccccc1
6. C=CC[C@]1(NC(=O)c2cc(Cl)cc(NC(=O)OCc3ccccc3)c2)CCNC1

Solution:
1. 7.51 µM
2. 0.366 µM
3. > 99.5 µM
4. > 99.5 µM
5. 44.3 µM
6. > 99.5 µM

All values here come from ChEMBL document CHEMBL5604062.
